# assay_summary: Kinetic solubility determination in PBS
# Assay type: physicochemical
# experimental_context: phosphate buffered saline (PBS 1×), 21 °C, pH 7.4, aqueous buffer, kinetic from dmso stock, PBS 1X pH 7.4, 2.0% DMSO, 24 hour incubation at ambient temperature, read-out: Solubility in aqueous PBS Buffer (1X, pH 7.4), ug/mL
Parameter: solubility at 24 h. Scope: all listed entries.
measured_parameter: solubility at 24 h

1. CC[C@H](C)[C@H](NC(=O)C1CCCC1C(=O)O)C(=O)NCC(=O)N1c2ccccc2C[C@H]1C(=O)NCc1nn[nH]n1 (single isomer, unassigned) [Example A22-1] :: > 416 µg/mL
2. CC[C@H](C)[C@H](NC(=O)[C@H](O)[C@@H](O)C(=O)O)C(=O)NCC(=O)N1c2ccccc2C[C@H]1C(=O)NCc1nn[nH]n1 [Example A32] :: > 410 µg/mL
3. CC(C)[C@H](NC(=O)CCC(=O)O)C(=O)NCC(=O)N1c2ccccc2C[C@H]1C(=O)NCc1nn[nH]n1 [Example A46] :: > 375 µg/mL
4. CC[C@H](C)[C@H](NC(=O)CCCC(=O)O)C(=O)NCC(=O)N1c2ccccc2C[C@H]1C(=O)NCc1nn[nH]n1 [Example A14] :: 57 µg/mL
5. CC[C@H](C)[C@H](NC(=O)C(F)(F)C(F)(F)C(=O)O)C(=O)NCC(=O)N1c2ccccc2C[C@H]1C(=O)NCc1nn[nH]n1 [Example A43] :: 342 µg/mL
6. CC[C@H](C)[C@H](NC(=O)Cc1ccccc1)C(=O)NCC(=O)N1c2cc(NC(C)=O)ccc2C[C@H]1C(=O)NCc1nn[nH]n1 [Example C27] :: > 442 µg/mL

###

# assay_summary: Kinetic solubility determination in PBS
# Assay type: physicochemical
# experimental_context: PBS 1X pH 7.4, 2.0% DMSO, 24 hour incubation at ambient temperature
# Experimental: Kinetic solubility buffer (phosphate buffered saline (PBS, 1×) at pH 7.4) was prepared from PBS (10×) solution, (Fisher Scientific, Pittsburgh, Pa., USA, 10×), by adding PBS (50 mL, 10×) to approximately water (450 mL HPLC grade). The volume of the solution was then adjusted to 500 mL for a total dilution factor of 1:10 and a final PBS concentration of 1×. The pH of the final solution (PBS (1×)) was measured and found to be 7.4. […]
measured_parameter: Solubility in aqueous PBS Buffer (1X, pH 7.4), uM

1) CC[C@H](C)[C@H](NC(=O)C1CCCC1C(=O)O)C(=O)NCC(=O)N1c2ccccc2C[C@H]1C(=O)NCc1nn[nH]n1 (single isomer, unassigned) [Example A22-2] :: >750 uM
2) CC[C@H](C)[C@H](NC(=O)C1CCCCC1C(=O)O)C(=O)NCC(=O)N1c2ccccc2C[C@H]1C(=O)NCc1nn[nH]n1 (single isomer, unassigned) [Example A23-2] :: 679 uM
3) CC[C@H](C)[C@H](NC(=O)C1CCCCC1C(=O)O)C(=O)NCC(=O)N1c2ccccc2C[C@H]1C(=O)NCc1nn[nH]n1 (single isomer, unassigned) [Example A23-1] :: >750 uM

###

# experimental_system: human Granzyme B (hGzmB) (Homo sapiens, UniProt P10144)
# Construct: purchased Froelich Lab, Northshore University Health Systems Research Institute, Evanston, Ill., USA
# Sequence (P10144 21-247): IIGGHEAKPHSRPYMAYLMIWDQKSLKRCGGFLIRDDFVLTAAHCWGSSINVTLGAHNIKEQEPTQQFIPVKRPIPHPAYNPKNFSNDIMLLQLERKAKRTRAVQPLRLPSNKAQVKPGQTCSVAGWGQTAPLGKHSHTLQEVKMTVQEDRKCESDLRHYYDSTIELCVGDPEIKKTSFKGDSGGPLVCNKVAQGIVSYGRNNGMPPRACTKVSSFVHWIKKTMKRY
# assay_summary: Human Granzyme B enzymatic inhibition assay (fluorogenic, kinetic)
# Type: biochemical
# experimental_context: activity codes, Table 7; read-out: IC50 Activity Range
pIC50: −log10 of the molar value.
Below, each of the molecules is paired with its reported pIC50 value.
measured_parameter: pIC50

1) CC[C@H](C)[C@H](NC(=O)CCC(=O)O)C(=O)NCC(=O)N1c2ccccc2C[C@H]1C(=O)NCc1nn[nH]n1 [Example A13] :: > 7.00
2) CC[C@H](C)[C@H](NC(=O)c1ccccc1C(=O)O)C(=O)NCC(=O)N1c2ccccc2C[C@H]1C(=O)NCc1nn[nH]n1 [Example A25] :: > 7.00
3) CC[C@H](C)[C@H](NC(=O)Cc1ccccc1)C(=O)N[C@H](C)C(=O)N1c2ccccc2C[C@H]1C(=O)NCc1nn[nH]n1 [Example C12] :: < 5.00
4) CC(C)(F)C(NC(=O)Cc1ccccc1)C(=O)NCC(=O)N1c2ccccc2C[C@H]1C(=O)NCc1nn[nH]n1 (mixture of isomers) [Example A41] :: < 5.00
5) C[C@@H](OC(C)(C)C)[C@H](NC(=O)Cc1ccccc1)C(=O)NCC(=O)N1c2ccccc2C[C@H]1C(=O)NCc1nn[nH]n1 [Example C9] :: < 5.00
6) CC[C@H](C)[C@H](Nc1ncccn1)C(=O)NCC(=O)N1c2ccccc2C[C@H]1C(=O)NCc1nn[nH]n1 [Example C26] :: < 5.00

###

# experimental_system: human Granzyme B (hGzmB) (Homo sapiens)
# Construct: purchased Froelich Lab, Northshore University Health Systems Research Institute, Evanston, Ill., USA
# assay_summary: Human Granzyme B enzymatic inhibition assay (fluorogenic, kinetic)
# Assay type: biochemical
# experimental_context: activity codes, Table 7; read-out: IC50 Activity Range
Counter-ions that a name gives are not always drawn.
measured_parameter: IC50

1. CC[C@H](C)[C@H](NC(=O)C1C[C@@H]1C(=O)O)C(=O)NCC(=O)N1c2ccccc2C[C@H]1C(=O)NCc1nn[nH]n1 (some centres unmarked) :: 1000 to 10000 nM
2. CC[C@H](C)[C@H](NC(=O)CCCC(=O)O)C(=O)NCC(=O)N1c2ccccc2C[C@H]1C(=O)NCc1nn[nH]n1 :: < 100 nM
3. CC[C@H](C)[C@H](NC(=O)C1CCCCC1C(=O)O)C(=O)NCC(=O)N1c2ccccc2C[C@H]1C(=O)NCc1nn[nH]n1 (single isomer, unassigned) [Example A23-1] :: < 100 nM
4. CC[C@H](C)[C@H](NC(=O)C(CCC(=O)O)c1ccccc1)C(=O)NCC(=O)N1c2ccccc2C[C@H]1C(=O)NCc1nn[nH]n1 (single isomer, unassigned) [Example A54-2] :: < 100 nM
5. CC[C@H](C)[C@H](NC(=O)Cc1ccc(CC(=O)O)cc1)C(=O)NCC(=O)N1c2ccccc2C[C@H]1C(=O)NCc1nn[nH]n1 :: < 100 nM
6. CC[C@H](C)[C@H](NC(=O)CCC(C(=O)O)c1ccccc1)C(=O)NCC(=O)N1c2ccccc2C[C@H]1C(=O)NCc1nn[nH]n1 (some centres unmarked) :: < 100 nM
7. O=C(Cc1ccccc1)N[C@H](C(=O)NCC(=O)N1c2ccccc2C[C@H]1C(=O)NCc1nn[nH]n1)C1CCCC1 :: 100 to 1000 nM
8. CC[C@H](C)[C@H](NC(=O)C[C@@H](N)C(=O)O)C(=O)NCC(=O)N1c2ccccc2C[C@H]1C(=O)NCc1nn[nH]n1 :: 100 to 1000 nM
9. CC[C@H](C)[C@H](NC(=O)C(C)(C)CC(=O)O)C(=O)NCC(=O)N1c2ccccc2C[C@H]1C(=O)NCc1nn[nH]n1 :: < 100 nM
10. CC[C@H](C)[C@H](NC(=O)CC(C)(C)C(=O)O)C(=O)NCC(=O)N1c2ccccc2C[C@H]1C(=O)NCc1nn[nH]n1 :: < 100 nM
11. CC[C@H](C)[C@H](NC(=O)Cc1ccccc1)C(=O)NCC(=O)N1c2ccccc2CCC1C(=O)NCc1c[nH]nn1 (mixture of isomers) :: 1000 to 10000 nM
12. CC[C@H](C)[C@H](NC(=O)Cc1cccc(CC(=O)O)c1)C(=O)NCC(=O)N1c2ccccc2C[C@H]1C(=O)NCc1nn[nH]n1 :: < 100 nM
13. CC[C@H](C)[C@H](NC(=O)Cc1ccccc1)C(=O)NCC(=O)N1c2cc(NC(C)=O)ccc2C[C@H]1C(=O)NCc1nn[nH]n1 :: 100 to 1000 nM
14. O=C(O)CCC(=O)N[C@H](C(=O)NCC(=O)N1c2ccccc2C[C@H]1C(=O)NCc1nn[nH]n1)c1ccsc1 :: 1000 to 10000 nM
15. CC[C@H](C)[C@H](NC(=O)Cc1csc(N)n1)C(=O)NCC(=O)N1c2ccccc2C[C@H]1C(=O)NCc1nn[nH]n1 [Example A10, Hydrochloride] :: 100 to 1000 nM
16. CC[C@H](C)[C@H](NC(=O)Cc1ccccc1)C(=O)NCC(=O)N1c2ccccc2C[C@H]1C(=O)NC(C)c1nn[nH]n1 (some centres unmarked) :: 1000 to 10000 nM
17. CC[C@H](C)[C@H](NC(=O)Cc1cccnc1)C(=O)NCC(=O)N1c2ccccc2C[C@H]1C(=O)NCc1nn[nH]n1 :: 100 to 1000 nM

###

# assay_summary: Kinetic solubility determination in PBS
# Format: physicochemical
# experimental_context: phosphate buffered saline (PBS 1×), 21 °C, pH 7.4, aqueous buffer, kinetic from dmso stock, PBS 1X pH 7.4, 2.0% DMSO, 24 hour incubation at ambient temperature, read-out: Solubility in aqueous PBS Buffer (1X, pH 7.4)
Structures can show the parent of a compound that is named as a salt.
measured_parameter: solubility at 24 h

1) O=C(O)CCC(=O)N[C@H](C(=O)NCC(=O)N1c2ccccc2C[C@H]1C(=O)NCc1nn[nH]n1)C1CCCC1 :: 682 µM
2) CC[C@H](C)[C@H](NC(=O)CCN)C(=O)NCC(=O)N1c2ccccc2C[C@H]1C(=O)NCc1nn[nH]n1 :: > 150 µM
3) CC[C@H](C)[C@H](NC(=O)C(C)(C)CC(=O)O)C(=O)NCC(=O)N1c2ccccc2C[C@H]1C(=O)NCc1nn[nH]n1 :: > 750 µM
4) CC[C@H](C)[C@H](NC(=O)C1CCCC1C(=O)O)C(=O)NCC(=O)N1c2ccccc2C[C@H]1C(=O)NCc1nn[nH]n1 (single isomer, unassigned) :: > 750 µM
5) CC[C@H](C)[C@H](NC(=O)Cc1ccccc1)C(=O)NCC(=O)N1c2cc(NC(=O)CCC(=O)O)ccc2C[C@H]1C(=O)NCc1nn[nH]n1 :: > 750 µM
6) CC[C@H](C)[C@H](NC(=O)C(CCC(=O)O)c1ccccc1)C(=O)NCC(=O)N1c2ccccc2C[C@H]1C(=O)NCc1nn[nH]n1 (single isomer, unassigned) :: 451 µM
7) CC[C@H](C)[C@H](NC(=O)CC(C)CC(=O)O)C(=O)NCC(=O)N1c2ccccc2C[C@H]1C(=O)NCc1nn[nH]n1 (single isomer, unassigned) :: > 750 µM
8) CC[C@H](C)[C@H](NC(=O)Cc1nn[nH]n1)C(=O)NCC(=O)N1c2ccccc2C[C@H]1C(=O)NCc1nn[nH]n1 :: > 750 µM
9) CC[C@H](C)[C@H](NC(=O)CCC(=O)O)C(=O)NCC(=O)N1c2ccccc2C[C@H]1C(=O)NCc1nn[nH]n1 :: > 750 µM
10) CC[C@H](C)[C@H](NC(=O)/C=C\C(=O)O)C(=O)NCC(=O)N1c2ccccc2C[C@H]1C(=O)NCc1nn[nH]n1 :: 719 µM
11) CC[C@H](C)[C@H](NC(=O)C1CCCCC1C(=O)O)C(=O)NCC(=O)N1c2ccccc2C[C@H]1C(=O)NCc1nn[nH]n1 (single isomer, unassigned) :: 535 µM
12) CC[C@H](C)[C@H](NC(=O)Cc1ccccc1)C(=O)NCC(=O)N1c2ccccc2C[C@H]1C(=O)NCc1csnn1 :: 12.6 µM
13) CC[C@H](C)[C@H](NC(=O)c1ccccc1C(=O)O)C(=O)NCC(=O)N1c2ccccc2C[C@H]1C(=O)NCc1nn[nH]n1 :: 696 µM
14) CC[C@H](C)[C@H](NC(=O)[C@H](O)[C@@H](O)C(=O)O)C(=O)NCC(=O)N1c2ccccc2C[C@H]1C(=O)NCc1nn[nH]n1 :: > 750 µM
15) CC[C@H](C)[C@H](NC(=O)Cc1ccccn1)C(=O)NCC(=O)N1c2ccccc2C[C@H]1C(=O)NCc1nn[nH]n1 :: > 150 µM
16) CC[C@H](C)[C@H](NC(=O)CC(C)(C)CC(=O)O)C(=O)NCC(=O)N1c2ccccc2C[C@H]1C(=O)NCc1nn[nH]n1 :: 679 µM
17) O=C(Cc1ccccc1)N[C@H](C(=O)NCC(=O)N1c2ccccc2C[C@H]1C(=O)NCc1nn[nH]n1)C1CCCC1 :: 594 µM
18) CC[C@H](C)[C@H](NC(=O)Cc1csc(N)n1)C(=O)NCC(=O)N1c2ccccc2C[C@H]1C(=O)NCc1nn[nH]n1 [Example A10, Hydrochloride] :: > 750 µM
19) CC[C@H](C)[C@H](NC(=O)Cc1csc2ccccc12)C(=O)NCC(=O)N1c2ccccc2C[C@H]1C(=O)NCc1nn[nH]n1 :: 53 µM
20) CC[C@H](C)[C@H](NC(=O)Cc1ccccc1)C(=O)NCC(=O)N1c2ccc(N)cc2C[C@H]1C(=O)NCc1nn[nH]n1 [Example C32, Hydrochloride] :: > 750 µM
21) CC[C@H](C)[C@H](NC(=O)CCC(=O)O)C(=O)NCC(=O)N1c2ccccc2C[C@H]1C(=O)NCc1c[nH]nn1 :: > 750 µM
22) CC[C@H](C)[C@H](NC(=O)Cc1ccccc1)C(=O)NCC(=O)N1c2cc(NC(C)=O)ccc2C[C@H]1C(=O)NCc1nn[nH]n1 :: > 750 µM
23) CC[C@H](C)[C@H](NC(=O)C(C)(C)CCC(=O)O)C(=O)NCC(=O)N1c2ccccc2C[C@H]1C(=O)NCc1nn[nH]n1 :: > 750 µM
24) CC[C@H](C)[C@H](NC(=O)CC(C)(C)C(=O)O)C(=O)NCC(=O)N1c2ccccc2C[C@H]1C(=O)NCc1nn[nH]n1 :: > 750 µM
